# measured.target: human TRPA1 channel (Homo sapiens (Human))
# assay: hTRPA1 CHO Ca2+ FLIPR Tetra assay, block of cinnamaldehyde induced calcium influx
# Assay type: cell-based
# assay.context: read-out: hTRPA1 IC50 (10 min); CHO cells expressing TRPA1; compounds incubated 10 minutes at room temperature before cinnamaldehyde agonist; Hill coefficient fixed to 1.5; listed as 254
experimental.readout: pIC50
Please report pIC50 as the negative decimal logarithm of the molar concentration, giving only the number.

get_value(item= Cn1cnc2ncn(Cc3nc([C@@H]4[C@H]5C=C(c6cccc(F)c6F)C[C@H]54)no3)c(=O)c21 , readout=pIC50) returns 7.91

----------
# measured.target: UniProtKB O75762
# assay: hTRPA1 CHO Ca2+ FLIPR Tetra assay, block of cinnamaldehyde induced calcium influx
# Format: cell-based
# assay.context: read-out: hTRPA1 IC50 (90 min); CHO cells expressing TRPA1; compounds incubated 90 minutes at room temperature before cinnamaldehyde agonist; Hill coefficient fixed to 1.5
experimental.readout: pIC50
Notebook: values listed as pIC50 are -log10 of the concentration (mol/L).

Cn1cnc2ncn(Cc3nc([C@H]4[C@@H]5C=C(c6ccc(F)cn6)C[C@@H]54)no3)c(=O)c21    7.11
Cn1cnc2ncn(Cc3nc([C@H]4[C@@H]5C=C(c6ccc(Cl)cc6)C[C@@H]54)no3)c(=O)c21    8.29
Cn1nnc2ncn(Cc3nc([C@H]4C[C@](F)(c5ccc(Cl)cc5)C4)no3)c(=O)c21    6.80
N#Cc1ccc2c(=O)n(Cc3nc([C@@H]4[C@H]5C=C(c6ccccc6)C[C@H]54)no3)cnc2n1    7.41
Cn1cnc2ncn(Cc3nc([C@H]4[C@@H]5CN(c6ccccc6F)C[C@@H]54)no3)c(=O)c21    7.72

response.value for O=c1c2cccnc2ncn1Cc1nc([C@H]2[C@@H]3CN(c4ccccc4)C[C@@H]32)no1 (field: pIC50) = 7.82

So, Cc1cnn2ncn(Cc3nc([C@H]4[C@@H]5CN(c6cc(Cl)ccn6)C[C@@H]54)no3)c(=O)c12 ? Its pIC50 was 8.26

The reported value for O=c1c2cccnc2cnn1Cc1nc([C@H]2[C@@H]3CN(c4ccnc(F)c4)C[C@@H]32)no1 in terms of pIC50 is 7.39

Per the record, Cn1cnc2ncn(Cc3nc([C@H]4[C@@H]5CN(c6cc(Cl)c(F)cn6)C[C@@H]54)no3)c(=O)c21 has pIC50 of 6.89

Input Cn1cnc2ncn(Cc3nc([C@@H]4[C@H]5C=C(c6cccc(Cl)c6)C[C@H]54)no3)c(=O)c21 . Output pIC50: 8.11

Measured pIC50, Cn1cnc2ncn(Cc3nc([C@H]4[C@@H]5C=C(c6cc(F)cc(F)c6)C[C@@H]54)no3)c(=O)c21 : 8.62

What the record says about Cn1cnc2ncn(Cc3nc([C@H]4[C@@H]5C=C(c6ccc7ncsc7c6)C[C@@H]54)no3)c(=O)c21 : pIC50 is 8.51

For this compound ( Cn1cnc2ncn(Cc3nc([C@H]4[C@@H]5CN(c6cccc(-c7cccnc7)c6)C[C@@H]54)no3)c(=O)c21 ), measured pIC50 is 7.11

----------
# measured.target: human TRPA1 channel (Homo sapiens (Human), UniProt O75762)
# Sequence (O75762 whole entry): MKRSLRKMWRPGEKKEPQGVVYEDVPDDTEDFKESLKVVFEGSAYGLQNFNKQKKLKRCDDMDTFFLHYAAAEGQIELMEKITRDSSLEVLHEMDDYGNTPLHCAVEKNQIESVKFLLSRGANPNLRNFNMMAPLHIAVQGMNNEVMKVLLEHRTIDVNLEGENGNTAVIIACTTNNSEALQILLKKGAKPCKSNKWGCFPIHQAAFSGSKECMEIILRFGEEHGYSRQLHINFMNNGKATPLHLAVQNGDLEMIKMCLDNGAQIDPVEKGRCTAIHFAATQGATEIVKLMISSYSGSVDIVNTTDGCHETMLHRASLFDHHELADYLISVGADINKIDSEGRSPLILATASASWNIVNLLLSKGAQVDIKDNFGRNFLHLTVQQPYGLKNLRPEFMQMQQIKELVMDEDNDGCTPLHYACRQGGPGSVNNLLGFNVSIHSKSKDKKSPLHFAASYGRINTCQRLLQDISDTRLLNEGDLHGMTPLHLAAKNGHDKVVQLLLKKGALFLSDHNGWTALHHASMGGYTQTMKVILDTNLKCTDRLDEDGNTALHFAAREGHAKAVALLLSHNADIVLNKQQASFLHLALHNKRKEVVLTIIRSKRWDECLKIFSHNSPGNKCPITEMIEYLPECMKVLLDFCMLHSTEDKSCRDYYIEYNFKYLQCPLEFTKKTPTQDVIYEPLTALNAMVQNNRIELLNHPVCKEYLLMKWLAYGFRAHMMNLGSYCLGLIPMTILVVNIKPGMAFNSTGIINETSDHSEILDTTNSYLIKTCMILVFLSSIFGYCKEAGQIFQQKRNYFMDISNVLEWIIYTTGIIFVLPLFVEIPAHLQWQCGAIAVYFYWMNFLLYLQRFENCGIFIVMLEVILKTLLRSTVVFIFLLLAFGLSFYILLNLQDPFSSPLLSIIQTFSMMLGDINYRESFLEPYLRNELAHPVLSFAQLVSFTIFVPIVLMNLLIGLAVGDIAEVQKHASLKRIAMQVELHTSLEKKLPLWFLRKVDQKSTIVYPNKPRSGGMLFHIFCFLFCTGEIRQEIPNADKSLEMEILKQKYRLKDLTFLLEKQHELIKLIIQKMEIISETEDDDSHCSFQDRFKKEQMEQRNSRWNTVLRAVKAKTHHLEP
# assay: hTRPA1 CHO Ca2+ FLIPR Tetra assay, block of cinnamaldehyde induced calcium influx
# Assay type: cell-based
# assay.context: read-out: hTRPA1 IC50 (10 min); CHO cells expressing TRPA1; compounds incubated 10 minutes at room temperature before cinnamaldehyde agonist; Hill coefficient fixed to 1.5
The entries below are paired with their reported pIC50.
// scale note: pIC50 = -log10(conc_M); give the bare number

Cn1c(Cl)nc2ncn(Cc3nc([C@@H]4[C@H]5C=C(c6ccccc6)C[C@H]54)no3)c(=O)c21    7.80
CN(C)C(=O)CNc1nc2ncn(Cc3nc([C@H]4[C@@H]5C=C(c6ccccc6)C[C@@H]54)no3)c(=O)c2n1C    7.16
Cn1cnc2ncn(Cc3nc([C@H]4[C@@H]5C=C(c6ccc7[nH]ncc7c6)C[C@@H]54)no3)c(=O)c21    7.70
Cn1cnc2ncn(Cc3nc([C@H]4C[C@H](Oc5ccc(F)cc5)C4)no3)c(=O)c21    7.40
Cn1cnc2ncn(Cc3nc([C@H]4[C@@H]5CN(c6ccc(Cl)cc6F)C[C@@H]54)no3)c(=O)c21    7.82
Cc1cncc2ncn(Cc3nc([C@H]4C[C@](O)(c5ccc(Cl)cc5)C4)no3)c(=O)c12    7.51

// next item, pIC50 requested
pIC50 reported for this compound Cn1cnc2ncn(Cc3nc([C@H]4[C@@H]5C=C(c6ccc(C#N)cc6)C[C@@H]54)no3)c(=O)c21 : 7.66

Data credit: patent US10711004B2
